Tested on: Eimeria acervulina, Eimeria maxima and Eimeria tenella
Test: Cage experiments coccidiosis/chicks, mixed experimental infection
Type: in vivo, chicken chicks
Settings: 10 ppm in feed; grade 0 to 6
recordedMetric: dropping scores

Request: Name the reported dropping scores value associated with the molecule Cc1oc(=O)oc1Cn1c(C(F)(F)F)nc2c(Cl)cc3c(c21)OC(F)(F)C(F)(F)O3 [Example 15]
Result: 0

Request: Name the reported dropping scores value associated with the molecule Cc1oc(=O)oc1Cn1c(C(F)(F)F)nc2cc(C(F)(F)F)c(C(F)(F)F)cc21 [Example 13]
Result: 6

Request: Name the reported dropping scores value associated with the molecule Cc1oc(=O)oc1Cn1c(C(F)(F)F)nc2cc(C(F)(F)F)c(Cl)cc21 [Example 19]
Result: 3

Request: Name the reported dropping scores value associated with the molecule Cc1oc(=O)oc1Cn1c(C(F)(F)F)nc2c(C(F)(F)F)cc(C(F)(F)F)cc21 [Example 28]
Result: 0

Request: Name the reported dropping scores value associated with the molecule Cc1oc(=O)oc1Cn1c(C(F)(F)F)nc2c(Br)cc3c(c21)OC(F)(F)C(F)(F)O3 [Example 14]
Result: 4

Request: Name the reported dropping scores value associated with the molecule Cc1oc(=O)oc1Cn1c(C(F)(F)F)nc2cc(Cl)c(C(F)(F)F)cc21 [Example 18]
Result: 6
